# System: HT29 colon
# assayText: NCI-60 one-dose screen, 48 h (100 = growth as untreated, 0 = no growth, -100 = all killed)
# assayContext: 10 µM unless noted
About 83,000 compounds went through this panel and 20% of them were active in at least one assay; those are over-represented in the sample as a whole.
The threshold is 50%. Values of growth beneath it are tagged 1.0; values meeting or exceeding it are tagged 0.0.

{"columns": ["compound", "group"],
 "data": [
  ["Cc1ccc2c(c1)/C(=C/C(=O)c1cc3ccccc3oc1=O)C(=O)N2", 0.0],
  ["COC(=O)c1cc(C(=O)CBr)n2c1ccc1c3ccccc3ccc12", 1.0],
  ["Cc1[nH]nc2ccc3nc(-c4cn[nH]c4C(F)(F)F)c4c(c3c12)CCCC4", 1.0],
  ["N#Cc1ccc(C(=O)CSc2nc3c(c(Nc4ccc(S(N)(=O)=O)cc4)n2)CCC3)cc1", 0.0],
  ["COc1cc(C2CC(c3cc(OC)c(OC)c(OC)c3)=Nc3c(N)nc(N)nc3N2)ccc1Oc1nc(Nc2ccc(F)cc2)nc(N(C)C)n1 (centres undefined)", 1.0],
  ["Cc1ccc2nc(SCc3ccccc3F)n(-c3ccccc3)c(=O)c2c1", 0.0],
  ["COc1ccc(-c2nc3ccccc3n2CC(=O)N=Nc2c(O)[nH]c3ccc(Br)cc23)cc1", 1.0],
  ["O=C(N=Nc1c(O)[nH]c2ccc(Br)cc12)c1ccc2nc(-c3ccc(Cl)cc3)[nH]c2c1", 1.0],
  ["COc1ccc2c(c1)N=c1c-2cc2c(O)[nH]c(=S)n2c1=O", 1.0]
]}

====

# System: EKVX NSCLC
# assayText: NCI-60 one-dose screen, 48 h
# assayContext: 10 µM unless noted
The panel holds about 83,000 compounds, 20% with a hit somewhere; the sample as a whole holds those more often. Active and inactive are the calls of the source. The calls were made as follows: active = growth percent below 10; inactive = the rest.
Outcomes: t = active, f = inactive

{"columns": ["compound", "group"],
 "data": [
  ["O=c1c(-c2nc(-c3ccccc3)c(-c3ccccc3)[nH]2)coc2ccc(F)cc12", "f"],
  ["Cc1cc(=O)oc2cc(OCC(O)CNN3C(=O)c4cccc5c(N6CCN(C)CC6)ccc(c45)C3=O)ccc12 (centres undefined)", "f"],
  ["CS(=O)(=O)Nc1cc(-c2ccc3ncnc(N4CCc5cc(F)c(Cl)cc54)c3c2)cnc1Cl", "t"],
  ["CCN1C(=O)N(CC)C2NNC(Sc3c(C(=O)O)c4ccccc4n(CC(C)C)c3=O)=NC21 (centres undefined)", "f"],
  ["CS(=O)(=O)c1ccc(-n2nc(C(=O)NCc3ccccc3)cc2-c2ccc(Cl)cc2)cc1", "f"],
  ["Nc1nc(-c2ccccc2)c(N=Nc2ccc(Cl)cc2Cl)s1", "t"],
  ["COc1ccc(C(=O)c2cc(C(C)=O)c3c(C)cc(C)cn23)cc1", "f"],
  ["CN1CCN(C(=O)Oc2cc3c(c4ccccc24)[C@H](CCl)CN3C(=O)c2cc3cc(OCCCN4CCC4)ccc3[nH]2)[C@H]2CSSC[C@H]21", "t"],
  ["Cc1ccc(/C=C/C(=O)c2ccc(S(=O)(=O)NCCNc3nc(N(C)C)nc(N4CCOCC4)n3)cc2)cc1", "f"]
]}

====

# Tested on: HS 578T breast
# assayText: NCI-60 one-dose screen, 48 h
# assayContext: 10 µM unless noted
# Method: Growth inhibition of the HS 578T human tumor cell line is measured as a screen for anti-cancer activity. Cells are grown in 96 well plates and exposed to the test compound for 48 hours. Compounds are tested at a single concentration, which is 10^-5 M for most compounds. The reported endpoint is percent growth (GI% or GIPRCNT), where numbers from 0 - 100% represent growth inhibition, and numbers from -100% - 0 represent cell death. For example, a value of 40 represents 60% growth inhibition. […]
This is part of a sample that, as a whole, favours compounds with a hit. Of some 83,000 tested, about 20% had one in any assay. Calls of active or inactive are those of the source. The calls were made as follows: active = growth percent below 10; inactive = the rest.
Outcomes: active, inactive

{"columns": ["compound", "studySystem", "group"],
 "data": [
  ["N#CC1=C(c2cccs2)Nc2c(c(-c3ccccc3)nn2-c2ccccc2)C12C(=O)Nc1ccc(Cl)cc12 (stereo not drawn)", "HS 578T breast", "active"],
  ["COc1ccc2[nH]cc(-c3cc(N)n4nc(-c5c[nH]c6ccccc56)cc4n3)c2c1", "HS 578T breast", "inactive"],
  ["COC(=O)c1ccc(-c2c(-c3ccccc3)c(F)c3oc(C(=O)OC)c(N)c3c2-c2ccccc2)cc1", "HS 578T breast", "inactive"],
  ["O=C(NN1C(=O)/C(=C/C=C/c2ccc([N+](=O)[O-])o2)SC1=S)c1ccc(O)cc1", "HS 578T breast", "active"],
  ["Cc1ccc(/C=C/C(=O)c2ccc(S(=O)(=O)NCCNc3nc(N(C)C)nc(N4CCOCC4)n3)cc2)cc1", "HS 578T breast", "inactive"],
  ["COc1cc(/C=C/C(=O)c2cnn(-c3cc(=O)[nH]c4ccc(C)cc34)c2C)cc(OC)c1OC", "HS 578T breast", "inactive"],
  ["Cc1ccc(C(=O)Nc2cc(-n3ccnc3)cc(C(F)(F)F)c2)cc1-n1cc(-c2cnc3cccnn23)nn1", "HS 578T breast", "inactive"],
  ["COc1cc(/C=C/C(=O)c2ccc(S(=O)(=O)NCCNc3nc(N(C)C)nc(N4CCOCC4)n3)cc2)cc(OC)c1OC", "HS 578T breast", "inactive"]
]}

====

# Test system: KM12 colon
# assayText: NCI-60 one-dose screen, 48 h (100 = growth as untreated, 0 = no growth, -100 = all killed)
# assayContext: 10 µM unless noted
The panel holds about 83,000 compounds, 20% with a hit somewhere; the sample as a whole holds those more often. Activity calls are given as the source filed them. How the source made its calls: active means growth percent below 10; inactive means the rest.
Entries annotated with measured growth

{"columns": ["compound", "growth"],
 "data": [
  ["Cc1nc(N)ncc1-c1ccc2ncnc(N3CCc4cc(F)c(Cl)cc43)c2c1", "88.2% (inactive)"],
  ["COc1ccc2[nH]c(O)c(N=NC(=O)c3ccc4nc(-c5ccc(Cl)cc5)[nH]c4c3)c2c1", "78.6% (inactive)"],
  ["O=C(c1ccc(Cl)cc1)C1[C@H](c2ccccc2Cl)[C@@H](c2ccccc2)NC12C(=O)Nc1ccc(Cl)cc12 (stereo partly drawn)", "-48% (active)"],
  ["Nc1cc(-c2c[nH]c3ccc(Cl)cc23)nc2cc(-c3c[nH]c4ccccc34)nn12", "-70.5% (active)"],
  ["CC(C)(C)OC(=O)N1CCC2(CC1)Oc1ccccc1[C@H]1CC(c3ccc(Br)cc3)=NN12", "49.9% (inactive)"],
  ["C#CCN(C)CCCOc1ccc(N(C)C(=O)c2cc(C(C)C)c(O)cc2O)cc1Cl", "5.69% (active)"],
  ["CC1=C(C(=O)Nc2ccccc2)C(c2cccc(Cl)c2Cl)n2c(nc3ccccc32)N1 (stereo not drawn)", "32.9% (inactive)"],
  ["Cc1ccc(Cl)cc1NC(=O)N/C(N)=N/c1nc2ccccc2s1", "-28.7% (active)"],
  ["CCOc1ccc2[nH]c(=O)c(C(c3nnnn3CC3CCCO3)N3CCN(Cc4ccccc4)CC3)cc2c1 (stereo not drawn)", "101% (inactive)"],
  ["COc1ccc(NC(=O)CSc2nnc(-c3ccc(-c4nc5ccc(Cl)cc5[nH]4)cc3)o2)cc1", "29.6% (inactive)"],
  ["CC1=C(C(=O)Nc2ccccc2)C(c2cccc3ccccc23)n2c(nc3ccccc32)N1 (stereo not drawn)", "89.9% (inactive)"],
  ["O=C(Cn1c(/C=C/c2ccc([N+](=O)[O-])cc2)nc2ccccc2c1=O)Nc1ccccc1", "77.3% (inactive)"],
  ["COc1ccc2c(c1)N=c1c-2cc2c(O)[nH]c(=S)n2c1=O", "42.7% (inactive)"],
  ["Nc1nn2c(-c3cc4cc(Br)ccc4oc3=O)ccnc2c1N=Nc1ccccc1", "26.1% (inactive)"],
  ["O=CNc1cccc(-n2cnc3cc(-c4ccc(O)cc4)ccc32)c1", "26.4% (inactive)"],
  ["COC(=O)c1c(C(=O)OC)c2c3ccccc3c3ccccc3n2c1C(=O)C(F)(F)F", "106% (inactive)"],
  ["Oc1ccc(Cl)c(Nc2ncnc3c2cnn3CC(Cl)c2ccc(Br)cc2)c1 (stereo not drawn)", "85.9% (inactive)"],
  ["C[C@H]1[C@@H](CC(=O)N[C@@H](Cc2coc3ccccc23)B(O)O)O[C@@H]2OC3(C)CC[C@H]4[C@H](C)CC[C@@H]1[C@@]24O3", "0.198% (active)"],
  ["O=C(Cn1c(-c2ccccc2)nc2ccccc21)N=Nc1c(O)[nH]c2ccc(Br)cc12", "15% (inactive)"],
  ["O=C(Cc1c(-c2cccc([N+](=O)[O-])c2)n(-c2ncnc3c2c(-c2ccccc2)c(-c2ccccc2)n3Cc2ccccc2)[nH]c1=O)c1ccc(Cl)c(Cl)c1", "24.7% (inactive)"],
  ["Cc1cn(-c2cc(NC(=O)c3ccc(C)c(-n4cc(-c5cnc6cccnn56)nn4)c3)cc(C(F)(F)F)c2)cn1", "54.9% (inactive)"],
  ["CN(C)C(=O)c1cc(-c2ccc3ncnc(N4CCc5cc(F)c(Cl)cc54)c3c2)cnc1N", "-58.3% (active)"],
  ["ClC(Cn1ncc2c(Nc3cccc(Br)c3)nc(SCCN3CCOCC3)nc21)c1ccc(Br)cc1 (stereo not drawn)", "-20% (active)"],
  ["O=C(Nc1nc2ccc([N+](=O)[O-])cc2s1)Nc1ccc(Cl)cc1Cl", "60.2% (inactive)"],
  ["COC(=O)c1cc(C(=O)C(C)(C)C)n2c3ccccc3c3ccccc3c12", "79.5% (inactive)"],
  ["COc1ccccc1Nc1nnc(-c2c[nH]c3ccccc23)o1", "2.26% (active)"],
  ["N/C(=N\\c1nc2ccccc2s1)NC(=O)Nc1ccccc1F", "22.6% (inactive)"],
  ["O=C(N/N=C/c1c[nH]c2ccccc12)Nc1ccc(F)c(Cl)c1", "-14.7% (active)"]
]}
